For each record, write down the corresponding self-cleavage kobs at 10000 uM GlcN6P.
B1: glmS ribozyme (parent)
chain: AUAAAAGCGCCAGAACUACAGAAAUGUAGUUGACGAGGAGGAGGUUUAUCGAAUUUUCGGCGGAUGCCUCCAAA

Variants of: B1
PROTOCOL_DESCRIPTION: self-cleavage kobs at 10000 uM GlcN6P; higher = faster cleavage; RNA array
MEASUREMENT_CONDITIONS: with glucosamine-6-phosphate
This sample holds only a part of the variants without activity.
State the answer as a number, implicitly in s⁻¹.

INPUT: Provide one value: measured self-cleavage kobs at 10000 uM GlcN6P of G13A A15G
OUTPUT: 0.000784

INPUT: Provide one value: measured self-cleavage kobs at 10000 uM GlcN6P of U45C U46G
OUTPUT: 0.000685

INPUT: Provide one value: measured self-cleavage kobs at 10000 uM GlcN6P of A14C U55A
OUTPUT: 0.00734

INPUT: Provide one value: measured self-cleavage kobs at 10000 uM GlcN6P of C11A C58A G59A
OUTPUT: 6.59e-05

INPUT: Provide one value: measured self-cleavage kobs at 10000 uM GlcN6P of A14G U57G
OUTPUT: 0.000139

INPUT: Provide one value: measured self-cleavage kobs at 10000 uM GlcN6P of A48G C67G
OUTPUT: 4.41e-05

INPUT: Provide one value: measured self-cleavage kobs at 10000 uM GlcN6P of A12U U65G
OUTPUT: 0.00483

INPUT: Provide one value: measured self-cleavage kobs at 10000 uM GlcN6P of A39C U47G
OUTPUT: 0.00109

INPUT: Provide one value: measured self-cleavage kobs at 10000 uM GlcN6P of G38U C50A C67G
OUTPUT: 0.000115

INPUT: Provide one value: measured self-cleavage kobs at 10000 uM GlcN6P of U54A G66A C68A
OUTPUT: 9.65e-05

INPUT: Provide one value: measured self-cleavage kobs at 10000 uM GlcN6P of G29C G32U
OUTPUT: 0.000448

INPUT: Provide one value: measured self-cleavage kobs at 10000 uM GlcN6P of C10U C16U A33U
OUTPUT: 3.41e-05

INPUT: Provide one value: measured self-cleavage kobs at 10000 uM GlcN6P of C16G U57A
OUTPUT: 4.85e-05

INPUT: Provide one value: measured self-cleavage kobs at 10000 uM GlcN6P of A28C
OUTPUT: 0.0679

INPUT: Provide one value: measured self-cleavage kobs at 10000 uM GlcN6P of G9A U54C
OUTPUT: 3.34e-05

INPUT: Provide one value: measured self-cleavage kobs at 10000 uM GlcN6P of G37A U54A G66U
OUTPUT: 0.000359

INPUT: Provide one value: measured self-cleavage kobs at 10000 uM GlcN6P of A12U U46A
OUTPUT: 0.0045

INPUT: Provide one value: measured self-cleavage kobs at 10000 uM GlcN6P of G32A C67U C71G
OUTPUT: 5.54e-05

INPUT: Provide one value: measured self-cleavage kobs at 10000 uM GlcN6P of C8G C50G C67A
OUTPUT: 0.000113

INPUT: Provide one value: measured self-cleavage kobs at 10000 uM GlcN6P of U30A C70A
OUTPUT: 5.12e-05

INPUT: Provide one value: measured self-cleavage kobs at 10000 uM GlcN6P of A12G A39C G66U
OUTPUT: 6.62e-05

INPUT: Provide one value: measured self-cleavage kobs at 10000 uM GlcN6P of G44A C67U
OUTPUT: 0.0388

INPUT: Provide one value: measured self-cleavage kobs at 10000 uM GlcN6P of G43U A64G
OUTPUT: 8.1e-05

INPUT: Provide one value: measured self-cleavage kobs at 10000 uM GlcN6P of U65G C71A
OUTPUT: 0.00276

INPUT: Provide one value: measured self-cleavage kobs at 10000 uM GlcN6P of U2A A3U C50A
OUTPUT: 3.38e-05

INPUT: Provide one value: measured self-cleavage kobs at 10000 uM GlcN6P of U47A C68G
OUTPUT: 3.56e-05

INPUT: Provide one value: measured self-cleavage kobs at 10000 uM GlcN6P of C16U G43A C67G
OUTPUT: 0.000419

INPUT: Provide one value: measured self-cleavage kobs at 10000 uM GlcN6P of G43A C70U
OUTPUT: 5.31e-05

INPUT: Provide one value: measured self-cleavage kobs at 10000 uM GlcN6P of U31A G66U
OUTPUT: 0.000631

INPUT: Provide one value: measured self-cleavage kobs at 10000 uM GlcN6P of G40A A42G
OUTPUT: 0.00783
